The reported numbers originate from PubChem BioAssay (NCI).

System: MDA-MB-435 melanoma
Protocol Details: NCI-60 one-dose screen, 48 h
Settings: 10 µM unless noted
The panel holds about 83,000 compounds, 20% with a hit somewhere; the sample as a whole holds those more often. The source made the active and inactive calls. Rule for the calls: active = growth percent below 10; inactive = the rest.
Just give me one of these, please: active, inactive

Smiles Representation | Cat
O=[N+]([O-])c1ccc(NS(=O)(=O)c2cc(Cl)ccc2Cl)c2ccccc12 | inactive
CC(=O)CC/C=C(\C)[C@H](O)[C@H](C)C(=O)O[C@H]1C[C@H](C)C=C2C=C[C@@]3(C)O[C@@H](O)CC(=O)[C@]3(C)[C@H]21 | active
Cc1cc(Nc2ccc(Cl)c(Cl)c2)nc(N)n1 | inactive

-- ask GET /call?item= `COc1ccc(-c2ccc(NC(=O)Nc3cccc(C(F)(F)F)c3)c(C)n2)cc1` returns the recorded outcome of this test.
-- reply inactive

-- ask In this assay, the call recorded for `Nc1nccc2c1ccn2-c1cccc(NC(=O)c2ccc(N3CCOCC3)c(C(F)(F)F)c2)c1` was what?
-- reply active

-- ask Tell me the recorded outcome of this test for `O=C(O)c1cc2ccccc2cc1Nc1ccccc1` .
-- reply inactive

-- ask Hello, I am checking results. What call was entered for `COC(=O)c1ccc(NC(N)=NCC(C)(C)COc2ccc(C(F)(F)F)cc2)nc1` ?
-- reply inactive

-- ask Which outcome did this test record for the compound `CCc1c(C)c2cc3nc(NCc4ccccc4)oc3c(C)c2oc1=O` ?
-- reply inactive

-- ask State the result this test recorded for `O=c1c(-c2ccc3c(c2)OCO3)coc2c(CO)c(O)ccc12` .
-- reply inactive

-- ask Given `COc1ccc(CCNC=O)cc1OC` , state the outcome it received in this test.
-- reply inactive

====

Tested on: NCI/ADR-RES ovarian
Protocol Details: NCI-60 one-dose screen, 48 h (100 = growth as untreated, 0 = no growth, -100 = all killed)
Settings: 10 µM unless noted
The panel holds about 83,000 compounds, 20% with a hit somewhere; the sample as a whole holds those more often.
Endpoint Label: growth (%)
Numbers only, in %.

Known results for compounds:
Compound | growth, %
O=C(CSc1nnc(-c2ccc(Cl)cc2)o1)Nc1ccc(C(=O)/C=C/c2ccccc2)cc1 | 88.1
CCOC(=O)C(C)(CSSCC(C)(NC(=O)c1ccc2ccccc2c1)C(=O)OCC)NC(=O)c1ccc2ccccc2c1 (stereo unspecified) | 105
O=C(NOC1OC(CO)C(O)C(O)C1O)Nc1ccccc1 (stereo unspecified) | 109

Batch lookup, growth per entry.
1. C#C[C@H](O)/C=C/CCCCCCC#C[C@H](O)CC[C@@H](O)C#CCCCCCC/C=C/[C@@H](O)C#C
2. O=C1OC(N(Cc2ccc(Cl)cc2)c2ccccc2)c2ccccc21 (stereo unspecified)
3. c1ccc(CNCCN(CCNCc2ccccn2)Cc2ccc3ccccc3c2)nc1
4. N#CC1=C(N)Oc2c(ccc3ccccc23)C1c1cc(=O)oc2ccc(Cl)cc12 (stereo unspecified)
5. Cc1[nH]c2ccc(F)cc2c1CCNC(=O)C1CCN(C(=O)c2ccc(-c3ccccc3)cc2)CC1
6. CC1(C)N=C(N)N=C(N)N1c1ccc(F)c(C(F)(F)F)c1

-- reply
1: 54.5; 2: 105; 3: -13; 4: 12.2; 5: 49.6; 6: 91.9

====

System: SNB-19 CNS
Protocol Details: NCI-60 one-dose screen, 48 h (100 = growth as untreated, 0 = no growth, -100 = all killed)
Settings: 10 µM unless noted
About 83,000 compounds went through this panel and 20% of them were active in at least one assay; those are over-represented in the sample as a whole.
# condition met = growth below 50% (exclusive); condition not met = growth at/above 50%

-- ask Lab log: compare recorded growth with 50%; is it strictly lower for COc1ccc2c(c1)OC(N(C(C)=O)C(C)=O)=C(C#N)C2c1ccc(F)cc1 (centres undefined) ?
-- reply condition met

-- ask Answer whether the molecule CCC(CC(C)C)Nc1ccc(NC(CC)CC(C)C)cc1 (centres undefined) has growth strictly less than 50%
-- reply condition not met

-- ask Please check: growth for `CC(C)(CCN=C(N)Nc1ccccn1)c1ccc(C(F)(F)F)cc1` , strictly under 50% or not?
-- reply condition met

====

Test system: DU-145 prostate
Protocol Details: NCI-60 one-dose screen, 48 h (100 = growth as untreated, 0 = no growth, -100 = all killed)
Settings: 10 µM unless noted
The panel holds about 83,000 compounds, 20% with a hit somewhere; the sample as a whole holds those more often.
For each of the molecules below, state its growth.
Give bare numbers, in %.

Molecule | Unit Spec | growth
C=CC(C)(O)CCC1C(=C)CCC2C(C)(C)CCCC12C (centres undefined) | % | 104
O=C(NCCNc1nccc(-c2c(-c3cccc(O)c3)nc3sccn23)n1)c1ccccc1 | % | 90.4
O=C(N/N=C1\SCC(=O)N1c1ccccc1)c1cc(-c2cc3ccccc3o2)nn1-c1ccccc1 | % | 109

// each listed molecule needs a value for growth
1. Cc1ccc2nc(-c3ccc(-n4on4-c4ccc(/C=C/c5ccc(-n6on6-c6ccc(-c7nc8ccc(C)cc8s7)cc6)cc5S(=O)(=O)O)c(S(=O)(=O)O)c4)cc3)sc2c1
2. COc1ccc(C2CC(c3cc(Cl)c(C)cc3OC)=NN2c2ccc(S(N)(=O)=O)cc2)cc1OC (centres undefined)
3. COc1ccc(-c2nnc(SCC(=O)Nc3ccc(C(=O)/C=C/c4ccc(Cl)cc4)cc3)o2)cc1OC
4. Cc1[nH]c2ccc(F)cc2c1CCNC(=O)C1CCN(C(=O)c2ccc(-c3ccccc3)cc2)CC1
5. CC(=O)Cc1cccnc1
6. c1ccc([Se]CCCN2CCN(CCC[Se]c3ccccc3)CC2)cc1

-- reply
111
106
78.9
68.8
110
109

====

Task for the reader: assign each of the following molecules its reported growth.
Test system: U251 CNS
Protocol Details: NCI-60 one-dose screen, 48 h (100 = growth as untreated, 0 = no growth, -100 = all killed)
Settings: 10 µM unless noted
Compounds without any hit were thinned out: in the full panel of roughly 83,000, 20% have a hit.
One number for each entry, in %.

The cases that follow already have their growth on record.
Molecule | System Name | growth, %
COC(=O)c1oc2c(C(C)=O)c(OCCCN(C)C)ccc2c1C | U251 CNS | 99.5
CCN1CCN(Cc2ccc(NC(=O)Nc3cccc(-n4ccc5c(NC(=O)c6ccccc6)nccc54)c3)cc2C(F)(F)F)CC1 | U251 CNS | 76.3
COc1cc([C@@H]2c3cc4c(cc3C(OC3O[C@@H]5COC(C)O[C@H]5[C@H](O)[C@H]3O)C3COC(=O)[C@@H]32)OCO4)cc(OC)c1O (stereo partly specified) | U251 CNS | 13.5
Cn1c2ccccc2c2ssc(=S)c21 | U251 CNS | 96.2
CS(=O)(=O)Nc1cccc(-c2ccc3ncnc(Nc4cncc(Cl)c4)c3c2)c1 | U251 CNS | 23.8

Moving on to the next molecule.
-- ask Can you look up the measured growth of `N#CC(C#N)=C(C#N)c1c[nH]c2ccccc12` for me?
-- reply 86.3

====

Hi there, I'd appreciate the recorded growth for every entry that follows.
System: OVCAR-8 ovarian
Protocol Details: NCI-60 one-dose screen, 48 h (100 = growth as untreated, 0 = no growth, -100 = all killed)
Settings: 10 µM unless noted
This is part of a sample that, as a whole, favours compounds with a hit. Of some 83,000 tested, about 20% had one in any assay.
Give bare numbers, in %.

Below are worked cases with known answers.
Molecule | Unit Spec | growth
Cc1ccc(-c2nc3c(N=Nc4ccc(S(N)(=O)=O)cc4)c(N)nn3c(N)c2C#N)cc1 | % | 44.1
CCc1cccc(C)c1NC(=O)c1sc2nc3c(cc2c1N)CCCCC3 | % | 28.9
COc1cc(NC(=O)c2cc(OC)c3ccn(C)c3c2)cc2c1C[C@]1(C)CC[C@@H](O)C(C)(C)[C@H]1O2 | % | 75.8
COc1ccc(Cn2cc(COc3ccc4c5ccnc(C)c5n(CCCc5ccccc5)c4c3)nn2)cc1 | % | 61.9
COc1ccc(NC(=O)Nc2ccc(-c3ccc(OC)c(OC)c3)nc2C)cc1 | % | 47.4

List growth for every entry below, keeping the order given.
1. C=C1c2c(Cl)ccc(O)c2C(O)=C2C(=O)[C@]3(O)C(O)=C(C(N)=O)C(=O)[C@@H](N(C)C)[C@@H]3[C@@H](O)[C@H]12
2. c1ccc2c(c1)Oc1cccnc1-n1nccc1-2
3. O=C(Nc1ccc(-n2cc(-c3ccncc3)c(-c3ccc(O)c(Cl)c3)n2)cc1)c1cc(C(F)(F)F)cc(C(F)(F)F)c1
4. O=C(Nc1ccc(-n2ccc3c(NC(=O)c4ccccc4)nccc32)cc1)c1ccc(Cl)c(C(F)(F)F)c1

-- reply
9.79
99.6
69.5
23

====

Tested on: HOP-62 NSCLC
Protocol Details: NCI-60 one-dose screen, 48 h
Settings: 10 µM unless noted
About 83,000 compounds went through this panel and 20% of them were active in at least one assay; those are over-represented in the sample as a whole. Active and inactive are the calls of the source. How the source made its calls: active means growth percent below 10; inactive means the rest.
Returns: one label drawn from active, inactive

Sample answers from the record:
Compound | System Name | Cat
C=CCn1c(SCC(=O)Nc2ccc(C(=O)/C=C/c3cc(OC)c(OC)c(OC)c3)cc2)nnc1-c1ccc(OC)cc1 | HOP-62 NSCLC | active
CC1(C)N=C(N)N=C(N)N1c1cccc(CCCCc2ccccc2)c1 | HOP-62 NSCLC | active
Cc1ccn2cc(Cc3cc(=O)oc4c3ccc3ccccc34)c(=O)nc2c1 | HOP-62 NSCLC | inactive
CCOC(=O)C1CSC(C)(C(=O)OCC)N1 (centres undefined) | HOP-62 NSCLC | inactive

-- ask Which outcome was assigned to `C=C1c2c(Cl)ccc(O)c2C(O)=C2C(=O)[C@]3(O)C(O)=C(C(N)=O)C(=O)[C@@H](N(C)C)[C@@H]3[C@@H](O)[C@H]12` in this test?
-- reply active

-- ask Please indicate how the test categorized `Cc1ccc2nc(-c3ccc(-n4on4-c4ccc(/C=C/c5ccc(-n6on6-c6ccc(-c7nc8ccc(C)cc8s7)cc6)cc5S(=O)(=O)O)c(S(=O)(=O)O)c4)cc3)sc2c1` .
-- reply inactive

-- ask Query: recorded result category for CC1CCc2cc(F)cc3c(=O)c(C(=O)O)cn1c23 (centres undefined) in this test
-- reply inactive

-- ask Test call, this compound: `CN(C)CCS(=O)(=O)Nc1cc(-c2ccc3ncnc(Nc4ccc(F)c(Cl)c4)c3c2)cnc1Cl`
-- reply active

-- ask Check the results log: what was the call for `Nc1nccc(=S)[nH]1` ?
-- reply inactive
